Could you please report measured CellTiter-Glo fold change ± SD for the items listed next?
test system: Expi293 cells; assay: CellTiter-Glo cell health (ATP levels) during cell association assay; format: cell-based; conditions: reflective of cell health, luminescence Tfinal (22 hours) / Tinitial

{"columns": ["COMPOUND", "CellTiter-Glo fold change ± SD"],
 "data": [
  ["CC[C@H](C)[C@H](NC(C)=O)C(=O)N[C@@H](CC(C)C)C(=O)N[C@@H](CCC(N)=O)C(=O)N[C@]1(C)CCCCCCC=CCCC[C@@](C)(C(=O)N[C@@H](Cc2c[nH]cn2)C(=O)N[C@@H](Cc2ccc(O)cc2)C(=O)N[C@@H](CCC(N)=O)C(N)=O)NC(=O)[C@H](CO)NC(=O)[C@H](Cc2ccccc2)NC(=O)[C@H](C)NC(=O)[C@H](C)NC(=O)[C@H](CCC(=O)O)NC(=O)[C@H](Cc2ccc(O)cc2)NC1=O (single isomer, unassigned) [FP07860]", "1.2 ± 0.03"]
]}

--- query ---
Prompt: Using known records, supply CellTiter-Glo fold change ± SD for CCCC[C@H](NC(=O)[C@@H](NC(C)=O)C(C)C)C(=O)N[C@@H](CCC(=O)O)C(=O)N[C@]1(C)CCCCCCC=CCCC[C@@](C)(C(=O)N[C@@H](Cc2c[nH]cn2)C(=O)N[C@@H](Cc2ccc(O)cc2)C(=O)N[C@H](C(N)=O)C(C)C)NC(=O)[C@H]([C@@H](C)CC)NC(=O)[C@H](Cc2ccccc2)NC(=O)[C@H](C)NC(=O)[C@H](C)NC(=O)[C@H](CCC(N)=O)NC(=O)[C@H](Cc2ccc(O)cc2)NC1=O (single isomer, unassigned) [FP07868]
Response: 1.2 ± 0.10

====

Please respond with reported Target Concentration BLANK (phage screen NGS readout) for every item in the list.
Molecular target: beta-catenin (Homo sapiens, UniProt P35222)
Construct: made in house; host or cells: E. coli BL21 (DE3) pLysS
Sequence (P35222 134-665): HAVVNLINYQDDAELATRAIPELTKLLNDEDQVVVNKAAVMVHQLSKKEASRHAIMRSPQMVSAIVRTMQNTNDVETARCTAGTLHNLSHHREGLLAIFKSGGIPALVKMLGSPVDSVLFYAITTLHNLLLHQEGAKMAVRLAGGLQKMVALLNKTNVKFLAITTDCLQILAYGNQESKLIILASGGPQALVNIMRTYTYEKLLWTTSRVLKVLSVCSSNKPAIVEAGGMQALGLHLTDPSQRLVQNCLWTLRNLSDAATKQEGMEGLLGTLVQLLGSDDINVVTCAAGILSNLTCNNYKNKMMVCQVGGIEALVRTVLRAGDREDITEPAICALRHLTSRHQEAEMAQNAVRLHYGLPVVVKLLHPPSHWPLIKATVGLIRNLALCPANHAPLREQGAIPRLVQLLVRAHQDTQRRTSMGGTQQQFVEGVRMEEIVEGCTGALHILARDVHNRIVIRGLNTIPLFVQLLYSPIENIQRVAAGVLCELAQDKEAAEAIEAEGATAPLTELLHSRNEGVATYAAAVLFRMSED
Test: Phage Library Screening with NGS, beta-catenin
Type: binding
Details: BLANK, third column
Numbers only.

Record Target Concentration BLANK (phage screen NGS readout) per entry; entries follow.
1. DPAVFMCYEAAFECQYF
2. DPAMVTCYEAAYVCQYF
3. DPAWSDCIWAAEHCQLI

Response:
[1, 0, 0]
